# Tested on: Escherichia coli
# Type: cell-based
# CONDITIONS_USED: 2 h, pH 7.6
Residues, ends and D or L forms follow the SMILES beside them.
MIC E. coli by entry:
Your answer is read as µg/mL, so omit the unit and give the number.

Please review the entries below; each comes with its answer.
* CC[C@H](C)[C@H](NC(=O)[C@H](CCCCN)NC(=O)[C@H](Cc1c[nH]cn1)NC(=O)[C@H](CC(C)C)NC(=O)[C@H](CC(C)C)NC(=O)[C@H](Cc1ccccc1)NC(=O)[C@H](CC(N)=O)NC(=O)[C@@H](N)C(C)C)C(=O)N[C@@H](Cc1ccc(O)cc1)C(=O)NCC(=O)N[C@@H](CC(N)=O)C(=O)N[C@H](C(=O)N[C@@H](CCCNC(=N)N)C(=O)N[C@@H](Cc1ccc(O)cc1)C(=O)N[C@@H](CO)C(N)=O)[C@@H](C)CC [L1] (H-VNFLLHKIYGNIRYS-NH2) | 3.9
* CC[C@H](C)[C@H](NC(=O)[C@H](CCCCN)NC(=O)[C@H](Cc1c[nH]cn1)NC(=O)[C@H](CC(C)C)NC(=O)[C@H](CC(C)C)NC(=O)[C@H](Cc1ccccc1)NC(=O)[C@H](CC(N)=O)NC(=O)[C@@H](N)C(C)C)C(=O)N[C@@H](Cc1ccc(O)cc1)C(=O)NCC(=O)N[C@@H](CC(N)=O)C(=O)N[C@H](C(=O)N[C@@H](CCCNC(=N)N)C(=O)N[C@@H](CC(=O)O)C(=O)N[C@@H](CO)C(N)=O)[C@@H](C)CC [M3] (H-VNFLLHKIYGNIRDS-NH2) | 3.9

Consider now this further compound.
Query: Lab note: record MIC E. coli of CC[C@H](C)[C@H](NC(=O)[C@H](CC(N)=O)NC(=O)[C@H](CC(=O)O)NC(=O)[C@H](Cc1ccc(O)cc1)NC(=O)[C@@H](NC(=O)[C@H](CCCCN)NC(=O)[C@H](Cc1c[nH]cn1)NC(=O)[C@H](CC(C)C)NC(=O)[C@H](CC(C)C)NC(=O)[C@H](Cc1ccccc1)NC(=O)[C@H](CC(N)=O)NC(=O)[C@@H](N)C(C)C)[C@@H](C)CC)C(=O)N[C@@H](CCCNC(=N)N)C(=O)N[C@@H](Cc1ccc(O)cc1)C(=O)N[C@@H](CO)C(N)=O [M2] (H-VNFLLHKIYDNIRYS-NH2) tested on Escherichia coli.
Result: 7.8

* * *

# Test system: Streptococcus pyogenes
# Type: cell-based
# CONDITIONS_USED: 2 h, pH 7.6
Residues, ends and D or L forms follow the SMILES beside them.
In this section we review reported MIC S. pyogenes values for a set of compounds.
Give your result in µg/mL as a bare value.

- CC[C@H](C)[C@H](NC(=O)[C@H](CCCCN)NC(=O)[C@H](Cc1c[nH]cn1)NC(=O)[C@H](CC(C)C)NC(=O)[C@H](CC(C)C)NC(=O)[C@H](Cc1ccccc1)NC(=O)[C@H](CC(N)=O)NC(=O)[C@@H](N)C(C)C)C(=O)N[C@@H](Cc1ccc(O)cc1)C(=O)NCC(=O)N[C@@H](CC(N)=O)C(=O)N[C@H](C(=O)N[C@@H](CCCNC(=N)N)C(=O)N[C@@H](CC(=O)O)C(=O)N[C@@H](CO)C(N)=O)[C@@H](C)CC [M3] (H-VNFLLHKIYGNIRDS-NH2): 62.5

Turning to the following compound.
Query: Using Streptococcus pyogenes as the test system, report measured MIC S. pyogenes of CC(C)C[C@H](NC(=O)[C@H](CCCCN)NC(=O)[C@H](CCC(N)=O)NC(=O)[C@@H](NC(=O)[C@H](C)NC(=O)[C@H](CCC(=O)O)NC(=O)CNC(=O)CN)C(C)C)C(=O)N[C@H](C(=O)N[C@@H](CCCNC(=N)N)C(=O)N[C@@H](CCC(=O)O)C(=O)N[C@H](C(=O)N[C@@H](CCCCN)C(=O)N[C@@H](CC(=O)O)C(=O)NCC(N)=O)C(C)C)C(C)C [L2] (H-GGEAVQKLVREVKDG-NH2; N-terminus and C-terminus assumed) .
Result: 250

* * *

Residues, ends and D or L forms follow the SMILES beside them.
TEST_READOUT: β-turns content (%)
Kindly answer with a numeric value in %, unit omitted.

Query: Supply recorded β-turns content for CC[C@H](C)[C@H](NC(=O)[C@H](CCCCN)NC(=O)[C@H](Cc1c[nH]cn1)NC(=O)[C@H](CC(C)C)NC(=O)[C@H](CC(C)C)NC(=O)[C@H](Cc1ccccc1)NC(=O)[C@H](CC(N)=O)NC(=O)[C@@H](N)C(C)C)C(=O)N[C@@H](Cc1ccc(O)cc1)C(=O)NCC(=O)N[C@@H](CC(N)=O)C(=O)N[C@H](C(=O)N[C@@H](CCCNC(=N)N)C(=O)N[C@@H](Cc1ccc(O)cc1)C(=O)N[C@@H](CO)C(N)=O)[C@@H](C)CC [L1] (H-VNFLLHKIYGNIRYS-NH2) here.
Result: 24

* * *

Residues, ends and D or L forms follow the SMILES beside them.
TEST_READOUT: β-strand content (%)
Number in %, nothing else.

Query: Give recorded β-strand content. CC[C@H](C)[C@H](NC(=O)[C@H](CCCCN)NC(=O)[C@H](Cc1c[nH]cn1)NC(=O)[C@H](CC(C)C)NC(=O)[C@H](CC(C)C)NC(=O)[C@H](Cc1ccccc1)NC(=O)[C@H](CC(N)=O)NC(=O)[C@@H](N)C(C)C)C(=O)N[C@@H](Cc1ccc(O)cc1)C(=O)NCC(=O)N[C@@H](CC(N)=O)C(=O)N[C@H](C(=O)N[C@@H](CCCNC(=N)N)C(=O)N[C@@H](Cc1ccc(O)cc1)C(=O)N[C@@H](CO)C(N)=O)[C@@H](C)CC [L1] (H-VNFLLHKIYGNIRYS-NH2)
Result: 11.2

* * *

# Tested on: seven bacteria (V. parahaemolyticus, V. fluvialis, V. alginolyticus, E. coli, A. hydrophila, S. aureus, S. pyogenes)
# EXPERIMENTAL_DETAILS: MIC summarised over the seven bacteria (GB, average MIC, fold change)
# Type: cell-based
# CONDITIONS_USED: summary of the MICs over the seven bacteria; footnote b not given
Residues, ends and D or L forms follow the SMILES beside them.
TEST_READOUT: GB (µg/mL)
Enter your answer as a number in µg/mL; do not include the unit.

Query: Entry CC[C@H](C)[C@H](NC(=O)[C@H](CC(N)=O)NC(=O)[C@H](CC(=O)O)NC(=O)[C@H](Cc1ccc(O)cc1)NC(=O)[C@@H](NC(=O)[C@H](CCCCN)NC(=O)[C@H](Cc1c[nH]cn1)NC(=O)[C@H](CC(C)C)NC(=O)[C@H](CC(C)C)NC(=O)[C@H](Cc1ccccc1)NC(=O)[C@H](CC(N)=O)NC(=O)[C@@H](N)C(C)C)[C@@H](C)CC)C(=O)N[C@@H](CCCNC(=N)N)C(=O)N[C@@H](Cc1ccc(O)cc1)C(=O)N[C@@H](CO)C(N)=O [M2] (H-VNFLLHKIYDNIRYS-NH2) needs its GB filled in; supply it.
Result: 69.0

* * *

# System: Streptococcus pyogenes
# Format: cell-based
# CONDITIONS_USED: 2 h, pH 7.6
# Description: Seven bacteria including Vibrio parahaemolyticus, Vibrio fluvialis, Vibrio alginolyticus, Escherichia coli, Aeromonas hydrophila, Staphylococcus aureus and Streptococcus pyogenes were grown in LB medium at 30 °C and diluted to 10^6 CFU/mL in 0.01 M, pH 7.6 PBS. Peptides were diluted in PBS. […] GraphPad prism 6 was used to analyze the data with the statistical significance determined by one-way ANOVA and Student’s t test, and all experiments were carried out in triplicate.
Residues, ends and D or L forms follow the SMILES beside them.
Below, each of the compounds is paired with its reported MIC S. pyogenes value.
Respond numerically; units are µg/mL and should not be typed.

For orientation, consider the following solved cases.
• CC[C@H](C)[C@H](NC(=O)[C@H](CCCCN)NC(=O)[C@H](Cc1c[nH]cn1)NC(=O)[C@H](CC(C)C)NC(=O)[C@H](CC(C)C)NC(=O)CNC(=O)[C@H](CC(N)=O)NC(=O)[C@@H](N)C(C)C)C(=O)N[C@@H](Cc1ccc(O)cc1)C(=O)NCC(=O)N[C@@H](CC(N)=O)C(=O)N[C@H](C(=O)N[C@@H](CCCNC(=N)N)C(=O)N[C@@H](Cc1ccc(O)cc1)C(=O)N[C@@H](CO)C(N)=O)[C@@H](C)CC [M1] (H-VNGLLHKIYGNIRYS-NH2) = 15.6
• CC[C@H](C)[C@H](NC(=O)[C@H](CCCNC(=N)N)NC(=O)[C@H](CO)NC(=O)[C@H](CCC(=O)O)NC(=O)[C@@H](NC(=O)[C@@H](NC(=O)[C@H](CC(C)C)NC(=O)[C@H](CC(C)C)NC(=O)[C@H](CC(=O)O)NC(=O)[C@H](CCCNC(=N)N)NC(=O)[C@@H](NC(=O)[C@H](CCCNC(=N)N)NC(=O)[C@H](C)NC(=O)[C@@H](NC(=O)CN)C(C)C)[C@@H](C)CC)[C@@H](C)CC)[C@@H](C)CC)C(N)=O [L8] (H-GVARIRDLLIIESRI-NH2; N-terminus and C-terminus assumed) = 250
• CC[C@H](C)[C@H](NC(=O)[C@H](C)NC(=O)[C@H](CC(=O)O)NC(=O)[C@H](CCCNC(=N)N)NC(=O)[C@@H](NC(=O)[C@@H](N)CCCNC(=N)N)[C@@H](C)CC)C(=O)N[C@@H](C)C(=O)N[C@@H](Cc1c[nH]cn1)C(=O)NCC(=O)N[C@@H](Cc1ccc(O)cc1)C(=O)N[C@H](C(=O)N[C@H](C(=O)N[C@@H](CC(=O)O)C(=O)N[C@@H](CCCCN)C(=O)N[C@H](C(N)=O)C(C)C)C(C)C)[C@@H](C)CC [L10] (H-RIRDAIAHGYIVDKV-NH2) = 125

// next item, MIC S. pyogenes requested
Query: State its MIC S. pyogenes: CC[C@H](C)[C@H](NC(=O)[C@H](CC(N)=O)NC(=O)[C@H](CC(=O)O)NC(=O)[C@H](Cc1ccc(O)cc1)NC(=O)[C@@H](NC(=O)[C@H](CCCCN)NC(=O)[C@H](Cc1c[nH]cn1)NC(=O)[C@H](CC(C)C)NC(=O)[C@H](CC(C)C)NC(=O)[C@H](Cc1ccccc1)NC(=O)[C@H](CC(N)=O)NC(=O)[C@@H](N)C(C)C)[C@@H](C)CC)C(=O)N[C@@H](CCCNC(=N)N)C(=O)N[C@@H](Cc1ccc(O)cc1)C(=O)N[C@@H](CO)C(N)=O [M2] (H-VNFLLHKIYDNIRYS-NH2)
Result: 62.5
